Protocol: Nitric oxide release, Griess colorimetric method
Type: physicochemical
Condition context: phosphate buffer pH 7.4, N-acetylcysteine, 2 h
Reported Amount of NO Released (mol/mol) 2 h by item:
// return numeric value only (unit: mol/mol, not printed)

Here is how some compounds turned out for Amount of NO Released (mol/mol) 2 h.
COc1cc(/C(C)=N/O)ccc1OC(=O)c1cc(-c2ccc(Cl)cc2)n(-c2ccccc2)n1 [Compound 8d] : 0.106
COc1cc(/C(C)=N/O)ccc1OC(=O)c1cc(-c2ccccc2)n(-c2ccccc2)n1 [Compound 8a] : 0.121
COc1cc(/C(C)=N/O)ccc1OC(=O)c1cc(-c2ccc(C)cc2)n(-c2ccccc2)n1 [Compound 8b] : 0.159
COc1ccc(-c2cc(C(=O)Oc3ccc(/C(C)=N/O)cc3OC)nn2-c2ccc(S(N)(=O)=O)cc2)cc1 [Compound 8h] : 0.158

## Task Which Amount of NO Released (mol/mol) 2 h value is on record for COc1ccc(-c2cc(C(=O)Nc3ccc(/C(C)=N/O)cc3)nn2-c2ccc(S(N)(=O)=O)cc2)cc1 [Compound 10b] ?
## Result 0.114

## Task Could you share which Amount of NO Released (mol/mol) 2 h value was measured for C/C(=N\O)c1ccc(NC(=O)c2cc(-c3ccccc3)n(-c3ccc(S(N)(=O)=O)cc3)n2)cc1 [Compound 10a] ?
## Result 0.108

## Task Name the reported Amount of NO Released (mol/mol) 2 h value associated with the compound COc1cc(/C(C)=N/O)ccc1OC(=O)c1cc(-c2ccc(C)cc2)n(-c2ccc(S(N)(=O)=O)cc2)n1 [Compound 8g]
## Result 0.154

## Task Name the reported Amount of NO Released (mol/mol) 2 h value associated with the compound COc1ccc(-c2cc(C(=O)Oc3ccc(/C(C)=N/O)cc3OC)nn2-c2ccccc2)cc1OC [Compound 8e]
## Result 0.120

## Task For the compound COc1ccc(-c2cc(C(=O)Nc3ccc(/C(C)=N/O)cc3)nn2-c2ccc(S(N)(=O)=O)cc2)cc1OC [Compound 10c] , what Amount of NO Released (mol/mol) 2 h is on record?
## Result 0.151

## Task Return reported Amount of NO Released (mol/mol) 2 h; argument: COc1cc(/C(C)=N/O)ccc1OC(=O)c1cc(-c2ccc(Cl)cc2)n(-c2ccc(S(N)(=O)=O)cc2)n1 [Compound 8i]
## Result 0.115

## Task So what's the measured Amount of NO Released (mol/mol) 2 h for this one? COc1cc(/C(C)=N/O)ccc1OC(=O)c1cc(-c2ccccc2)n(-c2ccc(S(N)(=O)=O)cc2)n1 [Compound 8f]
## Result 0.116

* * *

Each entry below lists one item and its recorded inhibition at 100 µM value.
System: human pancreatic cancer cell line SUIT-2
Protocol: WST-8 antiproliferative assay, SUIT-2
Assay type: cell-based
Condition context: SUIT-2, 100 µM, WST-8 assay, read-out: Growth Inhibition (GI%) SUIT-2
Give just the number in %; leave the unit off.

Below, each entry is followed by its recorded inhibition at 100 µM result.
COc1ccc(-c2cc(C(=O)Oc3ccc(/C(C)=N/O)cc3OC)nn2-c2ccccc2)cc1OC : 83
COc1cc(C(C)=O)ccc1OC(=O)c1cc(-c2ccccc2)n(-c2ccc(S(N)(=O)=O)cc2)n1 : 75
COc1ccc(-c2cc(C(=O)Nc3ccc(/C(C)=N/O)cc3)nn2-c2ccc(S(N)(=O)=O)cc2)cc1 [Compound 10b] : 50

## Task // returns reported inhibition at 100 µM for input COc1ccc(-c2cc(C(=O)Nc3ccc(/C(C)=N/O)cc3)nn2-c2ccc(S(N)(=O)=O)cc2)cc1OC [Compound 10c]
## Result 103

## Task Entry under review: COc1cc(/C(C)=N/O)ccc1OC(=O)c1cc(-c2ccc(C)cc2)n(-c2ccccc2)n1 . Reported inhibition at 100 µM?
## Result 102

## Task Dear colleague, I am looking for the recorded inhibition at 100 µM of the following compound: CC(=O)c1ccc(NC(=O)c2cc(-c3ccccc3)n(-c3ccc(S(N)(=O)=O)cc3)n2)cc1
## Result 60

## Task Look up inhibition at 100 µM: COc1cc(/C(C)=N/O)ccc1OC(=O)c1cc(-c2ccc(C)cc2)n(-c2ccc(S(N)(=O)=O)cc2)n1
## Result 96

* * *

Assayed target: JNK-2 (Homo sapiens)
Construct: HEK293 only for the control lysate
Sequence (P45984 whole entry): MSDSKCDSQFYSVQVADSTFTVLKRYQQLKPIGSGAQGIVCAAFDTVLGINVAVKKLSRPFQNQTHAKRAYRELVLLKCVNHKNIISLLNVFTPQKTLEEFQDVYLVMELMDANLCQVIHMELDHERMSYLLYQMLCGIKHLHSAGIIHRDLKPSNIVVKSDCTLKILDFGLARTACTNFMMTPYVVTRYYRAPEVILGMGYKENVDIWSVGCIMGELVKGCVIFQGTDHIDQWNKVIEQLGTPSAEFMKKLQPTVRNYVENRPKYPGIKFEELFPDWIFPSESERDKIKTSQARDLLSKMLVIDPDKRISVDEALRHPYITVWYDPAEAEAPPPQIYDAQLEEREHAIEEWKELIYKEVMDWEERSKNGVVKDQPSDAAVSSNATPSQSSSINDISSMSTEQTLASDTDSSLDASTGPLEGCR
Protocol: JNK-2 inhibitory assay (SimpleStep ELISA, pT183/Y185)
Type: biochemical
Condition context: read-out: IC50 (µM) against JNK-2
Measured metric: IC50 (µM)
Hi! Could you send only the number? It should be in µM, unit omitted.

COc1cc(/C(C)=N/O)ccc1OC(=O)c1cc(-c2ccc(Cl)cc2)n(-c2ccccc2)n1 : 49

Consider the additional compound presented here.
## Task Record request: IC50 value, item COc1cc(/C(C)=N/O)ccc1OC(=O)c1cc(-c2ccc(Cl)cc2)n(-c2ccc(S(N)(=O)=O)cc2)n1
## Result 1

* * *

Measured metric: melting point

## Task Find the recorded melting point belonging to COc1cc(/C(C)=N/O)ccc1OC(=O)c1cc(-c2ccccc2)n(-c2ccc(S(N)(=O)=O)cc2)n1 and report it.
## Result 122 to 124 °C

## Task What does the data say about its melting point? Entry: COc1cc(C(C)=O)ccc1OC(=O)c1cc(-c2ccc(Cl)cc2)n(-c2ccc(S(N)(=O)=O)cc2)n1
## Result 71 to 74 °C

## Task Data request, read-out melting point, for COc1ccc(-c2cc(C(=O)Oc3ccc(C(C)=O)cc3OC)nn2-c2ccc(S(N)(=O)=O)cc2)cc1
## Result 80 to 83 °C

* * *

Protocol: WST-8 cytotoxicity towards normal cell line PC12
Format: cell-based, rat
Condition context: rat, PC12 cells; WST-8 assay, six concentrations 1-100 μM; read-out: CC50 against PC12 cell line
Experimental: The evaluation of normal cell viability is fundamental in analyzing the efficacy of target compounds and is often used in conjunction with cytotoxicity tests to help understand how target compound toxicity affects normal cell health. […] The visible absorbance at 450 nm and 630 nm as the reference wavelength of each well was quantified using an MTP-310 absorbance microplate reader. […] The results of cytotoxicity were recorded as growth inhibition percentages and as IC50 values.
Measured metric: CC50 at 24 h (µM)
I only need the number, in µM, no unit after it.

## Task Data request, read-out CC50 at 24 h, for COc1cc(/C(C)=N/O)ccc1OC(=O)c1cc(-c2ccc(C)cc2)n(-c2ccc(S(N)(=O)=O)cc2)n1
## Result 16.1

* * *

Protocol: Nitric oxide release, Griess colorimetric method
Type: physicochemical
Condition context: phosphate buffer pH 7.4, N-acetylcysteine, 1 h
# maps each entry to its Amount of NO Released (mol/mol) 1 h
Write the number in mol/mol without appending the unit.

Check out these entries, answers already filled in.
COc1ccc(-c2cc(C(=O)Oc3ccc(/C(C)=N/O)cc3OC)nn2-c2ccc(S(N)(=O)=O)cc2)cc1 : 0.099
COc1ccc(-c2cc(C(=O)Nc3ccc(/C(C)=N/O)cc3)nn2-c2ccc(S(N)(=O)=O)cc2)cc1OC [Compound 10c] : 0.075
COc1cc(/C(C)=N/O)ccc1OC(=O)c1cc(-c2ccccc2)n(-c2ccccc2)n1 : 0.095
COc1ccc(-c2cc(C(=O)Nc3ccc(/C(C)=N/O)cc3)nn2-c2ccc(S(N)(=O)=O)cc2)cc1 [Compound 10b] : 0.095
C/C(=N\O)c1ccc(NC(=O)c2cc(-c3ccccc3)n(-c3ccc(S(N)(=O)=O)cc3)n2)cc1 [Compound 10a] : 0.054

## Task Which Amount of NO Released (mol/mol) 1 h is reported for this molecule? COc1cc(/C(C)=N/O)ccc1OC(=O)c1cc(-c2ccc(Cl)cc2)n(-c2ccc(S(N)(=O)=O)cc2)n1
## Result 0.105

## Task Name the recorded Amount of NO Released (mol/mol) 1 h for COc1cc(/C(C)=N/O)ccc1OC(=O)c1cc(-c2ccc(Cl)cc2)n(-c2ccccc2)n1 .
## Result 0.096

## Task Consider the molecule COc1cc(/C(C)=N/O)ccc1OC(=O)c1cc(-c2ccccc2)n(-c2ccc(S(N)(=O)=O)cc2)n1 and give its measured Amount of NO Released (mol/mol) 1 h.
## Result 0.096

* * *

Tested on: human cervical cancer cell line Hela
Protocol: WST-8 antiproliferative assay, Hela
Format: cell-based
Condition context: 100 µM, WST-8 assay, read-out: Growth Inhibition (GI%) Hela
Quick reference: inhibition at 100 µM of the listed items.
Quick reminder: number only, in %, skip the unit.

Please review the entries below; each comes with its answer.
COc1cc(C(C)=O)ccc1OC(=O)c1cc(-c2ccccc2)n(-c2ccccc2)n1 : 55
COc1ccc(-c2cc(C(=O)Oc3ccc(/C(C)=N/O)cc3OC)nn2-c2ccc(S(N)(=O)=O)cc2)cc1 : 7

## Task // query inhibition at 100 µM value for entry COc1ccc(-c2cc(C(=O)Oc3ccc(C(C)=O)cc3OC)nn2-c2ccccc2)cc1
## Result 52

## Task Look at this molecule and give its reported inhibition at 100 µM. CC(=O)c1ccc(NC(=O)c2cc(-c3ccccc3)n(-c3ccc(S(N)(=O)=O)cc3)n2)cc1
## Result 9

## Task // query inhibition at 100 µM value for entry COc1cc(/C(C)=N/O)ccc1OC(=O)c1cc(-c2ccccc2)n(-c2ccccc2)n1
## Result 33

## Task Which inhibition at 100 µM reading was recorded for the molecule COc1ccc(-c2cc(C(=O)Oc3ccc(/C(C)=N/O)cc3OC)nn2-c2ccc(S(N)(=O)=O)cc2)cc1OC ?
## Result 53

## Task Name the recorded inhibition at 100 µM for COc1cc(C(C)=O)ccc1OC(=O)c1cc(-c2ccc(C)cc2)n(-c2ccc(S(N)(=O)=O)cc2)n1 .
## Result 30
